- Test system: PARG in HeLa cell line
- PROTOCOL SUMMARY: PARG cell assay (PAR chain immunofluorescence after MMS)
- Type: cell-based
- TEST PARAMETERS: Homo sapiens; HeLa cells, MMS 50 μg/mL; read-out: PARG Cell IC50 Geomean
RECORDED ENDPOINT: IC50 (nM)
Reply with just the number (in nM).

Previously resolved entries follow.
>>> reported_value("Cc1cc(Cn2c(=O)c3cc(S(=O)(=O)NC4(C)CC4)ccc3n(C)c2=O)on1")
460
>>> reported_value("Cc1ncc(Cn2c(=O)c3cc(S(=O)(=O)NC4(C)CC4)ccc3n(CC3CC3)c2=O)s1")
28
>>> reported_value("Cn1c(=O)c2cc(S(=O)(=O)NC3(C)CC3)ccc2n(Cc2cnc(Cl)s2)c1=O")
342

Now let's try a different one.
### Prompt Return reported IC50 for target or system PARG in HeLa cell line, item Cn1cc(Cn2c(=O)c3cc(S(=O)(=O)NC4(C)CC4)ccc3n(CC3CCC3)c2=O)cn1 .
### Response 44

---

- TARGET OR TEST SYSTEM: Human Full Length PARG (Homo sapiens (Human), UniProt Q86W56)
- Sequence (Q86W56 whole entry): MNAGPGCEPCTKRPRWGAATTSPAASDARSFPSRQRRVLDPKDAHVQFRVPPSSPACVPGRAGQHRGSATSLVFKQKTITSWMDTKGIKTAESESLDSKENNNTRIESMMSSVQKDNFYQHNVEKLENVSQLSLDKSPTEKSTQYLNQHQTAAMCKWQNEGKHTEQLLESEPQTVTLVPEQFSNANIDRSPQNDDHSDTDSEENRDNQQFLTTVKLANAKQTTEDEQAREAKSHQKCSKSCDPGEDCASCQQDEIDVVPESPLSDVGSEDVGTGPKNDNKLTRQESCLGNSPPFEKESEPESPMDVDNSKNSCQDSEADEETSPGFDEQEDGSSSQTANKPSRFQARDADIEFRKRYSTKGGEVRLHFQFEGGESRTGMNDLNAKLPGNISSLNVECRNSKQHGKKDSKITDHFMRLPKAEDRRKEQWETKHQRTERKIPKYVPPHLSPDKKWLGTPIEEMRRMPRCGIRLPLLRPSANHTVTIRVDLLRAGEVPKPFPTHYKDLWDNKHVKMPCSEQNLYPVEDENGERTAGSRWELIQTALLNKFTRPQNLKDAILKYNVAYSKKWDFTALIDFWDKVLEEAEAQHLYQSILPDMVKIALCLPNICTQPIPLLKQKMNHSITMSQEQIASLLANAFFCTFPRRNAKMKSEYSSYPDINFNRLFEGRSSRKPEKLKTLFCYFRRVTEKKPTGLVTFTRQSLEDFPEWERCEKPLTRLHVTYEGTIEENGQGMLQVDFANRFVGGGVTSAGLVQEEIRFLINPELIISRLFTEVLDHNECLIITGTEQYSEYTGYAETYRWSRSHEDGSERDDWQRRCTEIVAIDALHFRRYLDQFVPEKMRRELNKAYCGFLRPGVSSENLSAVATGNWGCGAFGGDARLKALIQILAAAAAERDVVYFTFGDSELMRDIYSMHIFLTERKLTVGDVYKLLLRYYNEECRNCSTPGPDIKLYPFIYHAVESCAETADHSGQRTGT
- PROTOCOL SUMMARY: PARG enzyme assay (TR-FRET)
- Format: biochemical
- TEST PARAMETERS: read-out: PARG Biochem IC50
RECORDED ENDPOINT: pIC50
Answer as the number alone; pIC50 is minus log10 of concentration in mol/L.

Guide cases for pIC50, answers given:
>>> reported_value("C#CC1(NS(=O)(=O)c2ccc3[nH]c(=O)n(Cc4cnn(C)c4)c(=O)c3c2)CC1")
5.43
>>> reported_value("Cn1cc(Cn2c(=O)c3cc(S(=O)(=O)NC4(C(F)F)CC4)ccc3n(CC3CC3)c2=O)cn1")
5.97
>>> reported_value("C#CCn1c(=O)n(Cc2cc(C)no2)c(=O)c2cc(S(=O)(=O)NC3(CF)CC3)ccc21")
6.92

Now let's try a different one.
### Prompt Provide one value: measured pIC50 of Cn1cc(Cn2c(=O)c3cc(S(=O)(=O)NC4(C)CC4)ccc3n(CC3CC3(F)F)c2=O)cn1 (stereo not shown)
### Response 6.98

---

- TARGET OR TEST SYSTEM: Human Full Length PARG (Homo sapiens (Human), UniProt Q86W56)
- PROTOCOL SUMMARY: PARG enzyme assay (TR-FRET)
- Format: biochemical
- TEST PARAMETERS: read-out: PARG Biochem IC50
RECORDED ENDPOINT: IC50 (nM)
The figure you give is taken to be in nM; do not add the unit.

>>> reported_value("Cn1c(=O)n(CC(=O)N2CCCC2)c(=O)c2cc(S(=O)(=O)NC3(C)CC3)ccc21 [Example 475]")
6120
>>> reported_value("C#CCn1c(=O)n(Cc2cnn(C)c2)c(=O)c2cc(S(=O)(=O)NC3(CF)CC3)ccc21 [Example 440]")
68
>>> reported_value("Cc1cc(Cn2c(=O)c3cc(S(=O)(=O)NC4(C)CC4)ccc3n(CC3CCC(=O)CC3)c2=O)on1 [Example 421]")
193
>>> reported_value("Cc1nc(Cn2c(=O)n(Cc3cnn(C)c3)c(=O)c3cc(S(=O)(=O)NC4(CF)CC4)ccc32)cs1 [Example 582]")
160

### Prompt Check Human Full Length PARG (Homo sapiens (Human), UniProt Q86W56) data and give IC50 for Cn1c(=O)n(CC(=O)c2ccc(C#N)cc2)c(=O)c2cc(S(=O)(=O)NC3(C)CC3)ccc21 [Example 531] .
### Response 3270

### Prompt Recall the reported IC50 of Cn1cc(Cn2c(=O)c3cc(S(=O)(=O)NC4(CF)CC4)ccc3n(CC3CCOC3)c2=O)cn1 (centres unmarked) [Example 598] on Human Full Length PARG (Homo sapiens (Human), UniProt Q86W56) and write it down.
### Response 82

### Prompt Tell me IC50 of Cc1nc(C)c(Cn2c(=O)n(Cc3cnn(C)c3)c(=O)c3cc(S(=O)(=O)NC4(CF)CC4)ccc32)s1 [Example 463] when tested on Human Full Length PARG (Homo sapiens (Human), UniProt Q86W56).
### Response 6

### Prompt Provide IC50, system Human Full Length PARG (Homo sapiens (Human), UniProt Q86W56), entry Cn1cc(Cn2c(=O)c3cc(S(=O)(=O)NC4(CF)CC4)ccc3n(CC3(CO)CC3)c2=O)cn1 [Example 570]
### Response 126

### Prompt Report the value of IC50 obtained on Human Full Length PARG (Homo sapiens (Human), UniProt Q86W56) for Cc1nc(Cn2c(=O)n(Cc3cnn(C)c3)c(=O)c3cc(S(=O)(=O)NC4(CF)CC4)ccc32)n(C)n1 [Example 547] .
### Response 188

### Prompt GET IC50 | system: Human Full Length PARG (Homo sapiens (Human), UniProt Q86W56) | item: Cc1nnc(Cn2c(=O)n(Cc3cnn(C)c3)c(=O)c3cc(S(=O)(=O)NC4(CF)CC4)ccc32)o1 [Example 567]
### Response 225

Sourced from patent US10239843B2
